Just for reference, patent US20220204497A1 is where these values come from.

Biological target: AIMP2-DX2 (Homo sapiens, UniProt Q13155)
Sequence (Q13155 1-251 isoform Q13155-2): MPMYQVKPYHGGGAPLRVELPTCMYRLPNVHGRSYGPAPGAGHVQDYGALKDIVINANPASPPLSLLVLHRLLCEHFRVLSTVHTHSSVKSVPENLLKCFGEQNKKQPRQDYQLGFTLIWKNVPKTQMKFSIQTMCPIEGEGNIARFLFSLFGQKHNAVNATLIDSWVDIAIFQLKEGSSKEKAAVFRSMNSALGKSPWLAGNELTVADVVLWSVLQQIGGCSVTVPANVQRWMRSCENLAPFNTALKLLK
Assay: DX2-nanoluciferase assay (DX2 expression change) in transfected A549 cells
Conditions: A549, 4 h, read-out: DX-Nanoluciferase activity (10 μM), 10 μM, 4 hours treatment, A549 cells transfected with nanoluciferase-DX2
Grouping key: inhibition at 10 µM. Bins: low bracket (below 20%), middle bracket (20% to below 30%), high bracket (30% or more)

Examples from the recorded data:
{"compound": "COc1ccc(NC(=O)NNC(=O)[C@H](Cc2c[nH]c3ccccc23)NS(=O)(=O)c2ccc(C)cc2)cc1", "class_name": "high bracket"}
{"compound": "COc1cc(N2CCN(C(=O)OC(C)(C)C)CC2)ccc1NC(=O)[C@H](Cc1c[nH]c2ccccc12)NS(=O)(=O)c1ccc(C)cc1", "class_name": "middle bracket"}
{"compound": "COc1cc(N2CCN(C(C)=O)CC2)ccc1NC(=O)[C@H](Cc1c[nH]c2ccccc12)NS(=O)(=O)c1ccc(C)cc1", "class_name": "middle bracket"}

Lookup: Field: class (inhibition at 10 µM) — entry: Cc1ccc(S(=O)(=O)N[C@@H](Cc2c[nH]c3ccccc23)C(=O)NCCc2ccc(C(=O)O)cc2)cc1
Found: low bracket

Lookup: Field: class (inhibition at 10 µM) — entry: Cc1ccc(CCNC(=O)[C@H](Cc2c[nH]c3ccccc23)NS(=O)(=O)c2ccc(C)cc2)cc1
Found: high bracket

Lookup: Field: class (inhibition at 10 µM) — entry: O=C(Nc1ccc(N2CCOCC2)cc1)[C@H](Cc1c[nH]c2ccccc12)NS(=O)(=O)c1ccc(O)cc1
Found: low bracket

Lookup: Field: class (inhibition at 10 µM) — entry: CNC(=O)c1ccc(S(=O)(=O)N[C@@H](Cc2c[nH]c3ccccc23)C(=O)Nc2ccc(N3CCOCC3)cc2)cc1
Found: low bracket

Lookup: Field: class (inhibition at 10 µM) — entry: CC(C)(C)OC(=O)N[C@@H](Cc1c[nH]c2ccccc12)C(=O)Nc1ccc(N2CCOCC2)cc1
Found: low bracket

Lookup: Field: class (inhibition at 10 µM) — entry: Cc1ccc(S(=O)(=O)N[C@@H](Cc2c[nH]c3ccccc23)C(=O)NC(Cc2c[nH]c3ccccc23)C(=O)O)cc1 (some centres unmarked)
Found: high bracket

Lookup: Field: class (inhibition at 10 µM) — entry: Cc1cc(C)n(C(=O)[C@H](Cc2c[nH]c3ccccc23)NS(=O)(=O)c2ccc(Br)cc2)n1
Found: high bracket

Lookup: Field: class (inhibition at 10 µM) — entry: COc1ccc(-c2csc(NC(=O)[C@H](Cc3c[nH]c4ccc(O)cc34)NS(=O)(=O)c3ccc(Br)cc3)n2)cc1
Found: middle bracket

Lookup: Field: class (inhibition at 10 µM) — entry: Cc1ccc(S(=O)(=O)N[C@@H](Cc2ccc3ccccc3c2)C(=O)Nc2ccc(N3CCOCC3)cc2)cc1
Found: low bracket

Lookup: Field: class (inhibition at 10 µM) — entry: O=C(NCCc1ccc(F)cc1)[C@H](Cc1c[nH]c2ccccc12)NS(=O)(=O)c1ccc(Br)cc1
Found: high bracket

Lookup: Field: class (inhibition at 10 µM) — entry: Cc1ccc(S(=O)(=O)N[C@@H](Cc2c[nH]c3ccccc23)C(=O)Nc2ccc(N3CCNCC3)cc2)cc1
Found: middle bracket
